Test system: MDA-MB-435 melanoma
Assay: NCI-60 one-dose screen, 48 h (100 = growth as untreated, 0 = no growth, -100 = all killed)
Details: 10 µM unless noted
The panel holds about 83,000 compounds, 20% with a hit somewhere; the sample as a whole holds those more often.
recorded.endpoint: growth (%)

[
  {
    "molecule": "CCN(CC)Cc1cc(Nc2ccnc3cc(Cl)ccc23)cc(-c2ccc(Cl)cc2)c1O",
    "experimental.value": 35.4
  },
  {
    "molecule": "O=C1c2ccccc2C(=O)c2c1oc1ccc3ccccc3c21",
    "experimental.value": 91.3
  },
  {
    "molecule": "CCOC(=O)c1sc2nc(-c3cc4ccccc4o3)cc(-c3ccc(Cl)cc3)c2c1N",
    "experimental.value": 222
  },
  {
    "molecule": "C[C@]12CCc3nc(Nc4ccc(O)cc4)sc3C1=CC[C@@H]1[C@@H]2CC[C@]2(C)/C(=N/NC(N)=S)CC[C@@H]12",
    "experimental.value": -68.5
  },
  {
    "molecule": "Oc1c(-c2cc(C(F)(F)F)[nH]n2)cc(Cl)c(OCc2ccc(Cl)cc2)c1-c1ccc(Cl)c(C(F)(F)F)c1",
    "experimental.value": -16.9
  },
  {
    "molecule": "CCCNC(=S)N/N=C(\\C)c1ccccn1",
    "experimental.value": 49
  },
  {
    "molecule": "COc1cc(/C=C/C(=O)c2c(C)nc3ccccc3c2C)ccc1OCCCOc1cc2c(cc1OC)C(=O)N1CCC[C@H]1C=N2",
    "experimental.value": -60.8
  },
  {
    "molecule": "CCOC(=O)C(=CNc1ccccc1Cl)C(=O)OCC",
    "experimental.value": 76.9
  },
  {
    "molecule": "COc1cc2c(cc1OCCCOc1cc3c(cc1OC)C(=O)N1CCC[C@H]1C=N3)C=CC(C)(C)O2",
    "experimental.value": 101
  },
  {
    "molecule": "Brc1ccccc1Cn1c(-c2cncs2)nc2ccccc21",
    "experimental.value": 110
  },
  {
    "molecule": "C/C(=N\\NC(=S)Nc1ccccc1)c1ccccn1",
    "experimental.value": 59.6
  },
  {
    "molecule": "CCOC(=O)C1=C(C)NC(SCc2nnc(-c3ccc(Cl)cc3)o2)=NC1c1ccc(Br)cc1 (configuration not stated)",
    "experimental.value": 65.1
  },
  {
    "molecule": "CCCCOc1ncnc2nc[nH]c12",
    "experimental.value": 111
  },
  {
    "molecule": "COc1ccc(-c2[nH]nc(N)c2-c2cc(OC)c(OC)c(OC)c2)cc1",
    "experimental.value": -69.2
  },
  {
    "molecule": "Nc1nc(N)c2cc(CNc3ccc(Cl)c(Cl)c3)ccc2n1",
    "experimental.value": -1.48
  },
  {
    "molecule": "CN1CCN(Cc2ccc(NC(=O)c3cncc(C#Cc4ncc5ccccn45)c3)cc2C(F)(F)F)CC1",
    "experimental.value": 28.1
  },
  {
    "molecule": "COc1ccc(/C(=C\\c2ccc3c(c2)OCO3)C(=O)Nc2nc3ccc(F)cc3s2)cc1OC",
    "experimental.value": 99.8
  },
  {
    "molecule": "O=C(/C=C/c1cc([N+](=O)[O-])ccc1Cl)c1ccccc1",
    "experimental.value": 86
  },
  {
    "molecule": "CCc1ccc(Nc2ncnc3c2cnn3-c2cccc(Br)c2)cc1",
    "experimental.value": 98
  },
  {
    "molecule": "O=C(N=Nc1c(Cl)c(O)c2ccccc2c1O)C(=O)Nc1cccc(C(F)(F)F)c1",
    "experimental.value": -29.3
  },
  {
    "molecule": "Clc1ccc(Nc2ncnc3c2sc2ncccc23)c(Cl)c1",
    "experimental.value": 36.3
  },
  {
    "molecule": "COc1ccc2nc(C)cc(Nc3ccccc3O)c2c1",
    "experimental.value": 64.4
  },
  {
    "molecule": "O=C(c1ccc(C(F)(F)F)c(Cl)c1)N(Cc1ccc(Cl)cc1)c1ccc(-c2cc(C(F)(F)F)[nH]n2)c(O)c1",
    "experimental.value": 10.1
  },
  {
    "molecule": "Cc1cc(Cl)c2ccc(N(C)C)cc2n1",
    "experimental.value": 102
  },
  {
    "molecule": "Fc1ccc(-c2ccnc3nc(-c4ccncc4)nn23)cc1",
    "experimental.value": 107
  },
  {
    "molecule": "COc1cccc(CC(C)=C(c2ccc(OCCCN(C)C)cc2)c2ccc(OCCCN(C)C)cc2)c1",
    "experimental.value": -91.7
  },
  {
    "molecule": "Clc1cc(Br)ccc1-c1ccc(CNCC2CCNCC2)o1",
    "experimental.value": 52.9
  },
  {
    "molecule": "CC(C)=CCC[C@H](C)c1ccc(C)c2c1OCN(CCO)C2",
    "experimental.value": 101
  },
  {
    "molecule": "CN1CCN(Cc2ccc(NC(=O)c3cncc(C#Cc4ccc(N)nc4)c3)cc2C(F)(F)F)CC1",
    "experimental.value": 9.96
  },
  {
    "molecule": "Cc1cc(C)c([O-])c(CN(C)CCN(C)Cc2cc(C)cc(C)c2[O-])c1.O=C([O-])c1cccc(C(=O)[O-])n1.[Ti+4]",
    "experimental.value": 6.53
  },
  {
    "molecule": "CC(=O)N(C)c1ccc(Nc2cc(C)[nH]c3ccc4ncnc4c23)cc1",
    "experimental.value": 81.3
  },
  {
    "molecule": "CN=C1C=C/C(=N/N=c2/ccn(O)cc2C)C=C1C",
    "experimental.value": 102
  },
  {
    "molecule": "O=c1[nH]c2cc(Cl)c(Cl)cc2o1",
    "experimental.value": 103
  },
  {
    "molecule": "C#CCNC(=S)N/N=C(\\C)c1ccccn1",
    "experimental.value": 33.1
  },
  {
    "molecule": "Cc1ccc(CSCc2ccc(C(=O)NC3CC3)o2)cc1",
    "experimental.value": 77.7
  },
  {
    "molecule": "COc1ccc2c(c1)CCCC21C(=O)Nc2ccccc21 (configuration not stated)",
    "experimental.value": 101
  },
  {
    "molecule": "CCCc1n(Cc2ccc3ccccc3n2)cc[n+]1Cc1ccc2ccccc2n1",
    "experimental.value": 7.6
  },
  {
    "molecule": "O=C(Nc1ccc(Oc2ccc(NC(=O)Nc3ccccc3Cl)cc2)cc1)Nc1ccccc1Cl",
    "experimental.value": 48.8
  },
  {
    "molecule": "CCc1ccc2c(c1)N(CCO)C1=C(C(=O)OC1)C2c1cccc(Br)c1 (configuration not stated)",
    "experimental.value": -62.5
  },
  {
    "molecule": "NC(N)=N/N=C\\c1cccc(OCc2ccccc2)c1",
    "experimental.value": 35.1
  },
  {
    "molecule": "O=C1C=CC(=O)N1c1cccc(N2C(=O)C=CC2=O)c1",
    "experimental.value": 103
  },
  {
    "molecule": "Cc1ccc2nc(CN(CCN(Cc3nc4ccc(C)cc4[nH]3)Cc3nc4ccc(C)cc4[nH]3)Cc3nc4ccc(C)cc4[nH]3)[nH]c2c1",
    "experimental.value": -92.6
  }
]
